target: D55C MelBSt mutant (Salmonella typhimurium, UniProt P30878, D55C)
Construct: His10 (C); made in house; host or cells: E. coli DW2
Format: binding, Salmonella enterica serovar Typhimurium
condition summary: pH 7.5, no Na+, ITC 25 °C, read-out: Kd of α-NPG binding
assay readout: Kd

**Query** Name the reported Kd value associated with the molecule O=[N+]([O-])c1ccc(O[C@H]2O[C@H](CO)[C@H](O)[C@H](O)[C@H]2O)cc1 [α-NPG, 4-nitrophenyl-α-D-galactopyranoside]
**Result** 15.1 µM

---

target: WT MelBSt (Salmonella typhimurium, UniProt P30878)
Construct: His10 (C); made in house; host or cells: E. coli DW2
Sequence (P30878 whole entry): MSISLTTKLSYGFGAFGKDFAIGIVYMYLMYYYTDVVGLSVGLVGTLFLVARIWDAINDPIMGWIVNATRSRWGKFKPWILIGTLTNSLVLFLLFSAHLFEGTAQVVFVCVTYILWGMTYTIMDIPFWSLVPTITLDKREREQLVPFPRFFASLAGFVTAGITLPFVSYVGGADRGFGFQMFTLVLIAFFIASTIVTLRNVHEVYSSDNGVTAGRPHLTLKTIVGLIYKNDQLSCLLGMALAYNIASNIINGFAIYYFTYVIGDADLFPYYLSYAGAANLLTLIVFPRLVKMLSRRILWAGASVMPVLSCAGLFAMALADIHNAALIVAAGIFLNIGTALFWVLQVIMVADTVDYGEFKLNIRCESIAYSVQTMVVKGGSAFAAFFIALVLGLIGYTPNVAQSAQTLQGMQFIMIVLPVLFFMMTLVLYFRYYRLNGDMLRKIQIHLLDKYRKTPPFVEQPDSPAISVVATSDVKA
assay method text: ITC ligand-binding assay, purified WT MelBSt
Set-up: species or system Salmonella enterica serovar Typhimurium
condition summary: pH 6.25, Na+-free buffer, ITC, read-out: Kd of melibiose binding
assay readout: Kd (mM)
State the answer as a number, implicitly in mM.

**Query** So what's the measured Kd for this one? OC[C@H]1O[C@H](OCC2O[C@@H](O)[C@H](O)[C@@H](O)[C@@H]2O)[C@H](O)[C@@H](O)[C@H]1O (stereo partly shown)
**Result** 6.19

---

target: D55C MelBSt mutant (Salmonella typhimurium, UniProt P30878, D55C)
Construct: His10 (C); made in house; host or cells: E. coli DW2
Assay type: binding, Salmonella enterica serovar Typhimurium
condition summary: pH 7.5, 100 mM Na+, ITC 25 °C, read-out: Kd of α-NPG binding
assay readout: pKd
pKd here is simply -log10 of the concentration when that concentration is written in mol/L.

**Query** Tell me reported pKd for O=[N+]([O-])c1ccc(O[C@H]2O[C@H](CO)[C@H](O)[C@H](O)[C@H]2O)cc1 [α-NPG, 4-nitrophenyl-α-D-galactopyranoside] , tested with D55C MelBSt mutant (Salmonella typhimurium, UniProt P30878, D55C).
**Result** 4.87

---

target: WT MelBSt (Salmonella typhimurium)
Construct: His10 (C); made in house; host or cells: E. coli DW2
assay method text: ITC ligand-binding assay, purified WT MelBSt
Design: species or system Salmonella enterica serovar Typhimurium
condition summary: pH 8.5, Na+-free buffer, ITC, read-out: Kd of melibiose binding
assay readout: pKd
Field pKd (float): negative decimal logarithm of the concentration in molar.

**Query** For the compound shown here, OC[C@H]1O[C@H](OCC2O[C@@H](O)[C@H](O)[C@@H](O)[C@@H]2O)[C@H](O)[C@@H](O)[C@H]1O (stereo partly shown) , give the reported pKd.
**Result** 2.07

---

target: D55C MelBSt mutant (Salmonella typhimurium, UniProt P30878, D55C)
Construct: His10 (C); made in house; host or cells: E. coli DW2
Format: binding, Salmonella enterica serovar Typhimurium
condition summary: pH 7.5, 100 mM Na+, ITC 25 °C, read-out: Kd of melibiose binding
assay readout: pKd
# pKd = -log10(concentration in molar units)

**Query** Entry OC[C@H]1O[C@H](OCC2O[C@@H](O)[C@H](O)[C@@H](O)[C@@H]2O)[C@H](O)[C@@H](O)[C@H]1O (stereo partly shown) : reported pKd = ?
**Result** 2.29

---

target: D55C MelBSt mutant (Salmonella typhimurium, UniProt P30878, D55C)
Construct: His10 (C); made in house; host or cells: E. coli DW2
Type: binding, Salmonella enterica serovar Typhimurium
condition summary: pH 7.5, no Na+, ITC 25 °C, read-out: Kd of melibiose binding
assay readout: pKd
Recall that pKd is obtained by taking minus log10 of the concentration measured in molar.

**Query** Which pKd is listed for OC[C@H]1O[C@H](OCC2O[C@@H](O)[C@H](O)[C@@H](O)[C@@H]2O)[C@H](O)[C@@H](O)[C@H]1O (stereo partly shown) ?
**Result** 2.24
